Source: the supplement of paper PMC10567573

B1: ZNF207 (parent)
chain: CHICHKKLYTGPGLAIHCMQVHKE

# Variants of: B1
# ASSAY_METHOD_TEXT: protein stability index of a GFP-peptide fusion (GPS, HEK-293T) (PSI 1-6); higher = more stable;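 also: lentivirally expressed fusions sorted by FACS into six bins by GFP to DsRed ratio, PSI derived from sequencing read proportions per bin multiplied by bin number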
# CONDITION_LABEL: c terminus: a fixed tail appended
Task for the reader: assign each of the following variants its reported protein stability index.
Give your answer as a number; write no unit.

[in] Find the recorded protein stability index belonging to L8V and report it.
[out] 4.12

[in] I would be grateful if you could share the reported protein stability index for E24S .
[out] 3.17

[in] # protein stability index lookup, item M19T
[out] 3.73

[in] For the variant shown here, I3T , give the reported protein stability index.
[out] 3.03

[in] Returns the measured protein stability index for the input variant. Input: P12D
[out] 4.51

[in] Bench note: what protein stability index did G13E show?
[out] 4.3

[in] Using the record for H22E , report its protein stability index.
[out] 2.67

[in] Which protein stability index value belongs to A15M ?
[out] 3.35

[in] Returns the measured protein stability index for the input variant. Input: G11W
[out] 1.36

[in] Field request: protein stability index | item: G11M
[out] 2.05

[in] Look up protein stability index for this variant: V21R
[out] 2.84
